Attribution: the supplement of paper PMC9732359

Assay: protein stability index of a GFP-peptide fusion (yeast GPS) (PSI 1-4); higher = more stable; sorted into four equal gates, so the index is relative within each strain
Conditions: san1∆
Consider the following sequences and their measured protein stability index readings.

Example cases with answers are listed next.
>>> resultvalue("IFTDFLPSSNGSSRIIA [RRP42]")
3.07
>>> resultvalue("SCAIHARIVRVRSREDR [RPS26A]")
1.4
>>> resultvalue("DDLEKTLDKKDSIPLRI [RPN9]")
2.94
>>> resultvalue("NDDFSEVFEFKTFNKIQ [BRR2]")
2.24
>>> resultvalue("FKATIQILQGICKNCSA [RPO31]")
1.76

Task: Which value of protein stability index has been reported for SVIQLCGGINDSIPYPQ [ECM29] in the records?
Result: 2.57

Task: Which value of protein stability index has been reported for NLSQENDNEGKHISASI [YAR002W/NUP60] in the records?
Result: 3.13

Task: Which value of protein stability index has been reported for LTSVTNDICSVENYETS [SIR4] in the records?
Result: 1.88

Task: Which value of protein stability index has been reported for KIESSVESQFSAGRLYA [RPS8A] in the records?
Result: 1.96

Task: Which value of protein stability index has been reported for SYAVSPYAQKPLQGIFH [QCR8] in the records?
Result: 2.54

Task: Which value of protein stability index has been reported for DEEMAVLTRMDEDRSKK [SNF2] in the records?
Result: 2.42

Task: Which value of protein stability index has been reported for WSTTGDNGELDLSGFNI [MED2] in the records?
Result: 3.34

Task: Which value of protein stability index has been reported for RLQFAQGSVRRLTVSAR [QCR2] in the records?
Result: 1.77

Task: Which value of protein stability index has been reported for LLYYIPSLELSAEYLQM [YJR042W/NUP85] in the records?
Result: 1.45

###

Test: protein stability index of a GFP-peptide fusion (yeast GPS) (PSI 1-4); higher = more stable; sorted into four equal gates, so the index is relative within each strain
Details: pdr5∆
Record y whenever protein stability index is at 3 or higher; record n when lower.

>>> label("VNADDDDFMHSETREKE [RPB4]")
"n"
>>> label("KWKPVLSHIVYFLVLSP [RPN5]")
"n"
>>> label("PIIIYGTENTERPPLLP [YOR098C/NUP1]")
"n"
>>> label("YATKDGVAHLLNRFNFQ [QCR2]")
"n"
>>> label("VDNSPTTESNSRLKALN [YLR335W/NUP2]")
"y"

Task: Item LFSLEKPNLNYFKSILL [SWI1] with protein stability index of 3 or above?
Result: n

Task: Item EQDPYSNASQMGNTGSG [RPB3] with protein stability index of 3 or above?
Result: n

Task: Item DPQDVFNYNIFMHDPSV [SIR2] with protein stability index of 3 or above?
Result: n

Task: Item KCKTRAQLTLKRCKHFE [RPL42A] with protein stability index of 3 or above?
Result: n

###

Assay: protein stability index of a GFP-peptide fusion (yeast GPS) (PSI 1-4); higher = more stable; sorted into four equal gates, so the index is relative within each strain
Conditions: san1∆
Record criterion met whenever protein stability index is at 3 or higher; record criterion not met when lower.

Completed entries (count: 3):
>>> label("SSEILSYLSNSLDTSAS [YML103C/NUP188]")
"criterion not met"
>>> label("HLGERAASVIGMLVALG [RPC82]")
"criterion not met"
>>> label("CYEKVLESINEGNQIIV [BRR2]")
"criterion not met"

Task: Item RVIDDNNRRRSRKRGGE [SIR3] with protein stability index of 3 or above?
Result: criterion met

Task: Item PDLPALEASYSKSYTPR [SMC4] with protein stability index of 3 or above?
Result: criterion not met

Task: Item DPQDVFNYNIFMHDPSV [SIR2] with protein stability index of 3 or above?
Result: criterion not met

Task: Item NNVTSNPSEFTPNMVNS [SSN2] with protein stability index of 3 or above?
Result: criterion not met

Task: Item LAINAKTITSGLKYALA [RPB2] with protein stability index of 3 or above?
Result: criterion not met

Task: Item ESGEDEAEFSLRELSCC [RRP46] with protein stability index of 3 or above?
Result: criterion met

Task: Item GLHSSEYKLRSLTLSFI [ECM29] with protein stability index of 3 or above?
Result: criterion not met

Task: Item KRNSDKVEYKIVHDDPA [ITC1] with protein stability index of 3 or above?
Result: criterion not met

Task: Item KVSGVSLLALWKEKKEK [RPS23A] with protein stability index of 3 or above?
Result: criterion not met

Task: Item EPSDLRSWTLTSEMKVL [YGL100W/SEH1] with protein stability index of 3 or above?
Result: criterion met

Task: Item SAAMSIDKLSDVVMKAT [PRP8] with protein stability index of 3 or above?
Result: criterion not met

Task: Item TSLVANENDKIYLLFQS [YDL116W/NUP84] with protein stability index of 3 or above?
Result: criterion not met

Task: Item SKNCYLSEATESDLYKL [RPB2] with protein stability index of 3 or above?
Result: criterion not met

Task: Item PNEFMQFKSKEVEKAHP [PRP8] with protein stability index of 3 or above?
Result: criterion met

Task: Item ELPTQLALEIIVRPAKG [RRP46] with protein stability index of 3 or above?
Result: criterion not met

Task: Item KCVVIHNGSHRTVAGFS [ARP7] with protein stability index of 3 or above?
Result: criterion not met

Task: Item DIYMHDVNSASKSESDS [RRP4] with protein stability index of 3 or above?
Result: criterion met

Task: Item GENVFLKRISDGLSFGK [SIR3] with protein stability index of 3 or above?
Result: criterion met

Task: Item VDNSPTTESNSRLKALN [YLR335W/NUP2] with protein stability index of 3 or above?
Result: criterion met

Task: Item KIRCFRYISTLTLYLFQ [IRR1] with protein stability index of 3 or above?
Result: criterion not met

Task: Item SSTITGDVVLAAAYSHE [RPL5] with protein stability index of 3 or above?
Result: criterion not met

Task: Item TNTFGSNSAGTSLFGSS [YJL041W/NSP1] with protein stability index of 3 or above?
Result: criterion met
